B1: Glucocorticoid receptor, residues 419 to 494; numbered along this chain, P04150 (parent)
chain: KLCLVCSDEASGCHYGVLTCGSCKVFFKRAVEGQHNYLCAGRNDCIIDKIRRKNCPACRYRKCLQAGMNLEARKTK

Variants of: B1
Experiment: abundance fitness (aPCA) (normalised: wild type 0, dead -1); higher = more abundant; growth selection in yeast, the domain comes from the species named
Settings: Homo sapiens
Decide using abundance fitness: a value greater than or equal to -0.04 is True, a smaller one is False.

{"columns": ["mutant", "class_name"],
 "data": [
  ["N69A", "True"],
  ["D48C", "False"],
  ["L64P", "False"],
  ["Q65V", "True"]
]}

Ask: Dear colleague, could you confirm whether G12M has abundance fitness at or above -0.04?
Reply: False

Ask: Is reported abundance fitness greater than or equal to -0.04 here: L38Q
Reply: True

Ask: Tell me whether abundance fitness is at least -0.04 here: Q34L
Reply: False

Ask: Please check the record S22F and state if its abundance fitness is at or above -0.04.
Reply: True

Ask: Quick check: does E71V have abundance fitness greater than or equal to -0.04?
Reply: True

Ask: Please check the record C55R and state if its abundance fitness is at or above -0.04.
Reply: False

Ask: Please tell me: is the variant K53V at or over -0.04 in terms of abundance fitness?
Reply: True
